Experimental target: DNA gyrase from E. coli (Escherichia coli, UniProt P0AES4+P0AES6)
Test summary: Inhibitory activities on E. coli DNA gyrase (Inspiralis assay)
Readout kind: IC50 (nM)
Give the number; nM is assumed, so skip it.

In: Data request, read-out IC50, for `CC(=O)Nc1cccc(Nc2nccc(Nc3ccc(C(=O)O)cc3CN(C)C3CCCCC3)n2)c1`
Out: 250
